These measurements were taken from patent US8377945B2.

Molecular target: Syk kinase (Homo sapiens)
Construct: purchased Millipore 14-314
Assay: ELISA-based Syk kinase assay (phosphorylation of HS1 peptide substrate by isolated Syk kinase)
Assay type: biochemical
Conditions: IC50 of Syk kinase inhibition; 2 μM ATP, 2 μM peptide substrate
The entries below are paired with their reported IC50.

>  <molSmiles>
COc1cccc(Nc2c(-c3ccc4cc[nH]c4c3)[nH]c3c(C#N)cnn23)c1

>  <IC50>
3000 to 25000 nM

$$$$
>  <molSmiles>
N#Cc1cnn2c(Nc3ccc(N4CCOCC4)cc3)c(-c3ccc4c(c3)NC(=O)CO4)[nH]c12

>  <IC50>
3000 to 25000 nM

$$$$
>  <molSmiles>
COc1ccc(Nc2c(-c3cc(OC)c(OC)c(OC)c3)[nH]c3c(C#N)cnn23)cc1OC1CCCC1

>  <IC50>
510 to 2990 nM

$$$$
>  <molSmiles>
CC(=O)Nc1cccc(Nc2c(-c3ccc4cc[nH]c4c3)[nH]c3c(C#N)cnn23)c1

>  <IC50>
510 to 2990 nM

$$$$
>  <molSmiles>
COc1cccc(CNc2c(-c3ccc4c(c3)NC(=O)CO4)[nH]c3c(C#N)cnn23)c1

>  <IC50>
3000 to 25000 nM

$$$$
>  <molSmiles>
COc1ccc(Nc2c(-c3cc(C)c(OC)c(C)c3)[nH]c3c(C#N)cnn23)cc1OC

>  <IC50>
510 to 2990 nM

$$$$
>  <molSmiles>
COc1ccc(Nc2c(-c3cccc(N4CCOCC4)c3)[nH]c3c(C#N)cnn23)cc1OC

>  <IC50>
510 to 2990 nM

$$$$
>  <molSmiles>
COc1cc(Nc2c(-c3ccc4c(c3)NC(=O)CO4)[nH]c3c(C#N)cnn23)ccc1F

>  <IC50>
510 to 2990 nM

$$$$
>  <molSmiles>
COc1ccc(Nc2c(-c3ccc4c(c3)OCO4)[nH]c3c(C#N)cnn23)cc1OC

>  <IC50>
510 to 2990 nM

$$$$
>  <molSmiles>
COc1cc(-c2[nH]c3c(C#N)cnn3c2NCC2CCN(C(=O)OC(C)(C)C)CC2)cc(OC)c1OC

>  <IC50>
3000 to 25000 nM

$$$$
>  <molSmiles>
COCCOc1ccc(-c2[nH]c3c(C#N)cnn3c2Nc2ccc(F)c(OC)c2)cc1OC

>  <IC50>
510 to 2990 nM

$$$$
>  <molSmiles>
COc1ccc(Nc2c(-c3cc(Cl)c(OC)c(OC)c3)[nH]c3c(C#N)cnn23)cc1OC

>  <IC50>
510 to 2990 nM

$$$$
>  <molSmiles>
COc1cc(Nc2c(-c3cc(O)c(OC)c(OC)c3)[nH]c3c(C#N)cnn23)ccc1F

>  <IC50>
< 500 nM

$$$$
>  <molSmiles>
COc1ccc(Nc2c(Cc3ccccc3)[nH]c3c(C#N)cnn23)cc1OC

>  <IC50>
3000 to 25000 nM

$$$$
>  <molSmiles>
COC(=O)c1cccc(Nc2c(-c3ccc4c(c3)NC(=O)CO4)[nH]c3c(C#N)cnn23)c1

>  <IC50>
510 to 2990 nM

$$$$
>  <molSmiles>
COc1cc(-c2[nH]c3c(C#N)cnn3c2Nc2ccc(C)c(F)c2)cc(OC)c1OC

>  <IC50>
510 to 2990 nM

$$$$
>  <molSmiles>
N#Cc1cnn2c(Nc3ccc(Br)cc3)c(-c3ccc4c(c3)NC(=O)CO4)[nH]c12

>  <IC50>
510 to 2990 nM

$$$$
>  <molSmiles>
COc1ccc(Nc2c(-c3ccc(OCCN4CCCC4=O)cc3)[nH]c3c(C#N)cnn23)cc1OC

>  <IC50>
510 to 2990 nM

$$$$
>  <molSmiles>
N#Cc1cnn2c(Nc3ccc(N4CCOCC4)cc3)c(-c3ccc4cc[nH]c4c3)[nH]c12

>  <IC50>
510 to 2990 nM

$$$$
>  <molSmiles>
CC(=O)Nc1ccc(Nc2c(-c3ccc4c(c3)NC(=O)CO4)[nH]c3c(C#N)cnn23)cc1

>  <IC50>
3000 to 25000 nM

$$$$
>  <molSmiles>
COc1cc(-c2[nH]c3c(C#N)cnn3c2Nc2ccc(N3CCC(N4CCCC4)CC3)c(F)c2)cc(OC)c1OC

>  <IC50>
510 to 2990 nM

$$$$
>  <molSmiles>
COC(=O)COc1ccc(-c2[nH]c3c(C#N)cnn3c2Nc2ccc(OC)c(OC)c2)cc1

>  <IC50>
510 to 2990 nM

$$$$
>  <molSmiles>
COc1ccc(Nc2c(-c3ccc(OCC(=O)NC4CC4)c(OC)c3)[nH]c3c(C#N)cnn23)cc1OC

>  <IC50>
< 500 nM

$$$$
>  <molSmiles>
COc1cc(Nc2c(-c3ccc(C(N)=O)cc3)[nH]c3c(C#N)cnn23)cc(OC)c1OC

>  <IC50>
3000 to 25000 nM

$$$$
>  <molSmiles>
COc1ccc(Nc2c(-c3ccc(S(C)(=O)=O)cc3)[nH]c3c(C#N)cnn23)cc1OC

>  <IC50>
510 to 2990 nM

$$$$
>  <molSmiles>
COc1cc(-c2[nH]c3c(C#N)cnn3c2NC(=O)c2ccccc2)cc(OC)c1OC

>  <IC50>
3000 to 25000 nM

$$$$
>  <molSmiles>
COc1ccc(Nc2c(-c3cccc(NS(C)(=O)=O)c3)[nH]c3c(C#N)cnn23)cc1OC

>  <IC50>
510 to 2990 nM

$$$$
>  <molSmiles>
COc1ccc(CCNc2c(-c3ccc4c(c3)NC(=O)CO4)[nH]c3c(C#N)cnn23)cc1OC

>  <IC50>
3000 to 25000 nM

$$$$
>  <molSmiles>
COc1cccc(C(=O)Nc2c(-c3cc(OC)c(OC)c(OC)c3)[nH]c3c(C#N)cnn23)c1

>  <IC50>
> 25000 nM

$$$$
>  <molSmiles>
COc1cc(-c2[nH]c3c(C#N)cnn3c2NC(=O)COc2ccccc2)cc(OC)c1OC

>  <IC50>
> 25000 nM

$$$$
>  <molSmiles>
COC(=O)c1ccc(Nc2c(-c3cc(O)c(OC)c(OC)c3)[nH]c3c(C#N)cnn23)cc1

>  <IC50>
510 to 2990 nM

$$$$

====

Target: Syk kinase (Homo sapiens)
Assay: ELISA-based Syk kinase assay (phosphorylation of HS1 peptide substrate by isolated Syk kinase)
Details: IC50 of Syk kinase inhibition; 2 μM ATP, 2 μM peptide substrate
# key: entry, value: IC50

>  <molSmiles>
COc1ccc2c(-c3[nH]c4c(C#N)cnn4c3Nc3ccc(OC)c(OC)c3)c[nH]c2c1

>  <IC50>
0.51 to 2.99 µM

$$$$
>  <molSmiles>
COc1ccc(Nc2c(-c3cc(OC)c(OC)c(OC)c3)[nH]c3c(C#N)cnn23)cc1F

>  <IC50>
< 0.5 µM

$$$$
>  <molSmiles>
COc1cc(-c2[nH]c3c(C#N)cnn3c2Nc2ccc(Cl)c(Cl)c2)cc(OC)c1OC

>  <IC50>
0.51 to 2.99 µM

$$$$
>  <molSmiles>
CSc1ccc(-c2[nH]c3c(C#N)cnn3c2Nc2cccc(NC(C)=O)c2)cc1

>  <IC50>
0.51 to 2.99 µM

$$$$

====

Target: Syk kinase (Homo sapiens, UniProt P43405)
Assay: ELISA-based Syk kinase assay (phosphorylation of HS1 peptide substrate by isolated Syk kinase)
Conditions: IC50 of Syk kinase inhibition; 2 μM ATP, 2 μM peptide substrate
The entries below are paired with their reported IC50.

>  <compound>
COc1cc(Nc2c(-c3ccc4cc[nH]c4c3)[nH]c3c(C#N)cnn23)cc(OC)c1OC [Compound 26]

>  <IC50>
3000 to 25000 nM

$$$$
>  <compound>
COc1cc(Nc2c(-c3cc(OC)c(OC)c(OC)c3)[nH]c3c(C#N)cnn23)ccc1Cl [Compound 132]

>  <IC50>
510 to 2990 nM

$$$$
>  <compound>
COc1cc(-c2[nH]c3c(C#N)cnn3c2Nc2ccc(F)c(OC3CCCC3)c2)cc(OC)c1OC [Compound 145]

>  <IC50>
510 to 2990 nM

$$$$
>  <compound>
COc1cc(Nc2c(-c3cc(OC)c(OC)c(OC)c3)[nH]c3c(C#N)cnn23)ccc1OCCN1CCCC1 [Compound 129]

>  <IC50>
510 to 2990 nM

$$$$
>  <compound>
COc1cc(-c2[nH]c3c(C#N)cnn3c2Nc2cccc(NC(C)=O)c2)cc(OC)c1OC [Compound 30]

>  <IC50>
510 to 2990 nM

$$$$
>  <compound>
COC(=O)c1cccc(Nc2c(-c3ccc(OC)c(OC)c3)[nH]c3c(C#N)cnn23)c1 [Compound 77]

>  <IC50>
510 to 2990 nM

$$$$
>  <compound>
COc1cc(-c2[nH]c3c(C#N)cnn3c2NC(C)(C)CC(C)(C)C)cc(OC)c1OC [Compound 11]

>  <IC50>
> 25000 nM

$$$$
>  <compound>
COc1ccc2c(-c3[nH]c4c(C#N)cnn4c3Nc3ccc(NC(C)=O)cc3)c[nH]c2c1 [Compound 62]

>  <IC50>
3000 to 25000 nM

$$$$
>  <compound>
COc1cc(-c2[nH]c3c(C#N)cnn3c2Nc2ccc(CNC(=O)c3ccccn3)cc2)cc(OC)c1OC [Compound 149]

>  <IC50>
510 to 2990 nM

$$$$
>  <compound>
COc1ccc(Nc2c(-c3ccc(F)c(F)c3)[nH]c3c(C#N)cnn23)cc1OC [Compound 37]

>  <IC50>
510 to 2990 nM

$$$$
>  <compound>
COc1cc(-c2[nH]c3c(C#N)cnn3c2Nc2cc(F)c(OC)c(F)c2)cc(OC)c1OC [Compound 143]

>  <IC50>
< 500 nM

$$$$
>  <compound>
COc1cc(-c2[nH]c3c(C#N)cnn3c2NC(=O)c2ccc(C(F)(F)F)c(F)c2)cc(OC)c1OC [Compound 18]

>  <IC50>
3000 to 25000 nM

$$$$
>  <compound>
COc1ccc(Nc2c(-c3ccc(OCCO)c(OC)c3)[nH]c3c(C#N)cnn23)cc1OC [Compound 101]

>  <IC50>
510 to 2990 nM

$$$$
>  <compound>
COc1cc(Nc2c(-c3cc(OC)c(OC)c(OC)c3)[nH]c3c(C#N)cnn23)ccc1OC1CCCC1 [Compound 128]

>  <IC50>
510 to 2990 nM

$$$$
>  <compound>
COc1cc(-c2[nH]c3c(C#N)cnn3c2Nc2ccc(SC)c(F)c2)cc(OC)c1OC [Compound 157]

>  <IC50>
< 500 nM

$$$$
>  <compound>
COc1cc(Nc2c(-c3ccc(C(N)=O)cc3)[nH]c3c(C#N)cnn23)ccc1F [Compound 117]

>  <IC50>
510 to 2990 nM

$$$$
>  <compound>
COc1ccc(Nc2c(-c3ccc(OCC(N)=O)c(OC)c3)[nH]c3c(C#N)cnn23)cc1OC [Compound 135]

>  <IC50>
< 500 nM

$$$$
>  <compound>
COC(=O)COc1ccc(-c2[nH]c3c(C#N)cnn3c2Nc2cccc(C(=O)OC)c2)cc1OC [Compound 84]

>  <IC50>
510 to 2990 nM

$$$$
>  <compound>
COc1ccc(Nc2c(-c3ccc(NC(C)=O)cc3)[nH]c3c(C#N)cnn23)cc1OC [Compound 2]

>  <IC50>
510 to 2990 nM

$$$$
>  <compound>
COc1cc(Nc2c(-c3cc(OC)c(OC)c(OC)c3)[nH]c3c(C#N)cnn23)ccc1F [Compound 87]

>  <IC50>
< 500 nM

$$$$
>  <compound>
COC(=O)c1cccc(Nc2c(-c3cc(Cl)c(OC)c(OC)c3)[nH]c3c(C#N)cnn23)c1 [Compound 78]

>  <IC50>
3000 to 25000 nM

$$$$
>  <compound>
COc1ccc(-c2[nH]c3c(C#N)cnn3c2Nc2ccc(OC)c(OC)c2)cc1F [Compound 52]

>  <IC50>
3000 to 25000 nM

$$$$
>  <compound>
COc1ccc(Nc2c(-c3ccc(OC)c(OCC(N)=O)c3)[nH]c3c(C#N)cnn23)cc1OC [Compound 125]

>  <IC50>
510 to 2990 nM

$$$$
>  <compound>
COc1cc(-c2[nH]c3c(C#N)cnn3c2Nc2cccc(OC(F)(F)F)c2)cc(OC)c1OC [Compound 110]

>  <IC50>
510 to 2990 nM

$$$$
>  <compound>
COc1cc(-c2[nH]c3c(C#N)cnn3c2NCC2CCNCC2)cc(OC)c1OC [Compound 74]

>  <IC50>
3000 to 25000 nM

$$$$
>  <compound>
COc1ccc(Nc2c(-c3cccc(O)c3)[nH]c3c(C#N)cnn23)cc1OC [Compound 112]

>  <IC50>
510 to 2990 nM

$$$$
>  <compound>
COc1cc(Nc2c(-c3cc(OC)c(OC)c(OC)c3)[nH]c3c(C#N)cnn23)cc(OC)c1 [Compound 142]

>  <IC50>
< 500 nM

$$$$
>  <compound>
COc1cc(-c2[nH]c3c(C#N)cnn3c2Nc2ccc(F)c(C)c2)cc(OC)c1OC [Compound 120]

>  <IC50>
510 to 2990 nM

$$$$
>  <compound>
COC(=O)[C@H](Cc1ccccc1)Nc1c(-c2cc(OC)c(OC)c(OC)c2)[nH]c2c(C#N)cnn12 [Compound 76]

>  <IC50>
3000 to 25000 nM

$$$$
>  <compound>
COc1cc(-c2[nH]c3c(C#N)cnn3c2Nc2ccc(F)c(OC(C)C)c2)cc(OC)c1OC [Compound 133]

>  <IC50>
510 to 2990 nM

$$$$
>  <compound>
COC(=O)c1cccc(Nc2c(-c3ccc(OC)c(OCC(=O)O)c3)[nH]c3c(C#N)cnn23)c1 [Compound 86]

>  <IC50>
510 to 2990 nM

$$$$
